- Tested on: HPPD polypeptides (wild-type SEQ ID NO:1 and mutants)
- Experimental setup: total change in signal in presence of 50 μM Cmpd. 1, normalised to that without inhibitor; low substrate concentration
Listed below: Residual turnover values for each entry.

{"Molecule": "50 (protein, mutant HPPD polypeptide) MADLYENPMGLMGFEFIEFASPTPGTLEPIFEIMGFTKVATHRSKNVHLYRQGEINLILNNEPNSIASYFAAEHGPSVCGMAFRVKDSQKAYNRALELGAQPIHIDTGPMELNLPAIKGIGGAPLYLIDRFGEGSSIYDIDFVYLEGVERNPVGAGLKVIDHLTHNVYRGRMVYWANFYEKLFNFREARYFDIKGEYTGLTSKAMSAPDGMIRIPLNEESSKGAGQIEEFLMQFNGEGIQHVAFLTDDLVKTWDALKKIGMRFMTAPGDEYYEMLEGRLPDHGEPVDQLQARGILLDGSSVEGDKRLLLQIFSETLMGPVFFEFIQRKGDPGFGPDSFKVLFESVERDQVRRGVLTAD", "Residual turnover, %": 80}
{"Molecule": "17 (protein, mutant HPPD polypeptide) MADLYENPMGLMGFEFIEFASPTPGTLEPIFEIMGFTKVATHRSKNVHLYRQGEINLILNNEPNSIASYFAAEHGPSVCGMAFRVKDSQKAYNRALELGAQPIHIDTGPMELNLPAIKGIGGAPLYLIDRFGEGSSIYDIDFVYLEGVERNPVGAGLKVIDHLTHNVYRGRMVYWANFYEKLFNFREARYFDIKGEYTGLTSKAMSAPDGMIRIPLNEESSKGAGQIEEFLMQFNGEGIQHVAFLTDDLVKTWDALKKIGMRFMTAPGDEYYEMLEGRLPDHGEPVDQLQARGILLDGSSVEGDKRLLLQIFSETLMGPVFFEFIQRKGDDGFGPDSFKVLFESVERDQVRRGVLTAD", "Residual turnover, %": 54}
{"Molecule": "36 (protein, mutant HPPD polypeptide) MADLYENPMGLMGFEFIEFASPTPGTLEPIFEIMGFTKVATHRSKNVHLYRQGEINLILNNEPNSIASYFAAEHGPSVCGMAFRVKDSQKAYNRALELGAQPIHIDTGPMELNLPAIKGIGGAPLYLIDRFGEGSSIYDIDFVYLEGVERNPVGAGLKVIDHLTHNVYRGRMVYWANFYEKLFNFREARYFDIKGEYTGLTSKAMSAPDGMIRIPLNEESSKGAGQIEEFLMQFNGEGIQHVAFLTDDLVKTWDALKKIGMRFRTAPGDEYYEMLEGRLPDHGEPVDQLQARGILLDGSSVEGDKRLLLQIFSETLMGPVFFEFIQRKGHDGFGPDSFKVLFESMERDQVRRGVLTAD", "Residual turnover, %": 85}
{"Molecule": "52 (protein, mutant HPPD polypeptide) MADLYENPMGLMGFEFIEFASPTPGTLEPIFEIMGFTKVATHRSKNVHLYRQGEINLILNNEPNSIASYFAAEHGPSVCGMAFRVKDSQKAYNRALELGAQPIHIDTGPMELNLPAIKGIGGAPLYLIDRFGEGSSIYDIDFVYLEGVERNPVGAGLKVIDHLTHNVYRGRMVYWANFYEKLFNFREARYFDIKGEYTGLTSKAMSAPDGMIRIPLNEESSKGAGQIEEFLMQFNGEGIQHVAFLTDDLVKTWDALKKIGMRFMTAPGDEYYEMLEGRLPDHGEPVDQLQARGILLDGSSVEGDKRLLLQIFSETLMGPVFFEFIQRKGDSGFGPDSFKVLFESVERDQVRRGVLTAD", "Residual turnover, %": 57}
